- DETAILS: 298.15 K; 6100 kPa; Liquid
Attribute: mass density
Express it in kg/m3; write the number only.

Task: State, in one line, measured mass density of CC(=O)N(C)C [N,N-dimethylethanamide]
Output: 940.6

Task: Hello, please tell me recorded mass density for this one: `CCCCCCCl`
Output: 878.3

Task: Input `CCCCCl` , output reported mass density.
Output: 886.8

Task: Specify mass density for CN(C)C=O [dimethylformamide] and stop.
Output: 947.4

Task: Indicate its recorded mass density; the compound in question is `CCCCCCCCCl`
Output: 873.3

###

- DETAILS: 308.15 K; 100 kPa; Liquid
Measured mass density, listed per entry for reference.
Record the value in kg/m3, omitting the unit from your answer.

The following compounds have reported results that may help.
# COMPOUND, UNITS_SYMBOL, mass density
data = [
    ("CC(=O)N(C)C [N,N-dimethylethanamide]", "kg/m3", 927.9),
    ("CCCCCCCl [1-chlorohexane]", "kg/m3", 864.3),
    ("CCCCCCCCCl [1-chlorooctane]", "kg/m3", 861.4),
]

Task: Give reported mass density value for CN(C)C=O [dimethylformamide]
Output: 935

Task: Consider the compound CCCCCl [1-chlorobutane] and give its recorded mass density.
Output: 870
